Attribute: IC50
assay details: Inhibition of pseudotype HIV1 integrase strand transfer activity assessed as reduction in viral replication in HIV1 infected human CIP4 cells after 2 days in presence of 40% human serum albumin by luciferase reporter gene assay

smiles notation	uom	IC50
NC(=O)c1c2c(c(O)c3ncc(Cc4cccc(Cl)c4F)cc13)C(=O)N1CCCC[C@H]21	nM	1
N#Cc1c2c(c(O)c3ncc(Cc4cccc(Cl)c4F)cc13)C(=O)N1CCC[C@@H]1C2	nM	4540
N#Cc1c2c(c(O)c3ncc(Cc4cccc(Cl)c4F)cc13)C(=O)N1CCCN1C2	nM	415
N#Cc1c2c(c(O)c3ncc(Cc4cccc(Cl)c4F)cc13)C(=O)N1CCC[C@@H]21	nM	3320
N#Cc1c2c(c(O)c3ncc(Cc4cccc(Cl)c4F)cc13)C(=O)N1CCCC[C@@H]21	nM	1280
N#Cc1c2c(c(O)c3ncc(Cc4cccc(Cl)c4F)cc13)C(=O)N1CCC[C@H]1C2	nM	66
N#Cc1c2c(c(O)c3ncc(Cc4cccc(Cl)c4F)cc13)C(=O)N1CCCC[C@H]21	nM	457

----------
assay details: Inhibition of pseudotype HIV1 integrase strand transfer activity assessed as reduction in viral replication in HIV1 infected human CIP4 cells after 2 days by luciferase reporter gene assay
pIC50: −log10 of the molar value.
Listed here: items and their measured pIC50.
readout: pIC50

smiles notation	value reported
N#Cc1c2c(c(O)c3ncc(Cc4cccc(Cl)c4F)cc13)C(=O)N1CCC[C@@H]21	8.00
O=C1c2c(cc3cc(Cc4cccc(Cl)c4F)cnc3c2O)CN2CCCN12	7.80
NC(=O)c1c2c(c(O)c3ncc(Cc4cccc(Cl)c4F)cc13)C(=O)N1CCC[C@H]1C2	8.52
NC(=O)c1c2c(c(O)c3ncc(Cc4cccc(Cl)c4F)cc13)C(=O)N1CCCC[C@@H]21	9.22
N#Cc1c2c(c(O)c3ncc(Cc4cccc(Cl)c4F)cc13)C(=O)N1CCC[C@@H]1C2	8.15
O=C(NCc1ccc(F)cc1)c1cn2c(c(O)c1=O)C(=O)N1CCCO[C@H]1C2	8.70
N#Cc1c2c(c(O)c3ncc(Cc4cccc(Cl)c4F)cc13)C(=O)N1CCC[C@H]1C2	7.85
N#Cc1c2c(c(O)c3ncc(Cc4cccc(Cl)c4F)cc13)C(=O)N1CCC[C@H]21	8.30
NC(=O)c1c2c(c(O)c3ncc(Cc4cccc(Cl)c4F)cc13)C(=O)N1CCCC[C@H]21	9.15

----------
Each entry below carries its recorded pIC50.
assay details: Inhibition of pseudotype HIV1 integrase strand transfer activity assessed as reduction in viral replication in HIV1 infected human CIP4 cells after 2 days in presence of 40% human serum albumin by luciferase reporter gene assay
pIC50: −log10 of the molar value.

smiles notation	pIC50
N#Cc1c2c(c(O)c3ncc(Cc4cccc(Cl)c4F)cc13)C(=O)N1CCC[C@H]21	6.53
NC(=O)c1c2c(c(O)c3ncc(Cc4cccc(Cl)c4F)cc13)C(=O)N1CCC[C@@H]1C2	7.52
NC(=O)c1c2c(c(O)c3ncc(Cc4cccc(Cl)c4F)cc13)C(=O)N1CCC[C@H]1C2	7.82
O=C1c2c(cc3cc(Cc4cccc(Cl)c4F)cnc3c2O)CN2CCCN12	6.87
NC(=O)c1c2c(c(O)c3ncc(Cc4cccc(Cl)c4F)cc13)C(=O)N1CCCC[C@@H]21	8.70
